The reported numbers originate from patent US20250136586A1.

molecular target: CDK4/Cyclin D1 (Homo sapiens (Human)); assay: TR-FRET kinase inhibition assay, CDK4/Cyclin D1; assay type: biochemical; conditions: 1 mM ATP, 0.15 μM Rb (Ser780)-biotin substrate, read-out: CDK4D1 IC50
measured-metric: IC50 (nM)

compound="Cc1c(CN[C@@H]2CCOC2)n(C(C)C)c2cc(-c3nc(N[C@@H]4CCOC[C@H]4O)ncc3F)ccc2c1=O [Example 112]" uom=nM endpoint_value=15
compound="CC(C)n1c(CNC2CCCC2)cc(=O)c2ccc(-c3nc(N[C@@H]4CCOC[C@H]4O)ncc3F)cc21 [Example 66]" uom=nM endpoint_value=21
compound="CC(C)n1c(C(=O)NCCC#N)cc(=O)c2ccc(-c3nc(N[C@@H]4CCOC[C@H]4O)ncc3Cl)cc21 [Example 21]" uom=nM endpoint_value=35
compound="CNC(=O)c1cc(=O)c2ccc(-c3nc(N[C@@H]4CCOC[C@H]4O)ncc3F)cc2n1C(C)C [Example 7]" uom=nM endpoint_value=14

###

molecular target: CDK4/Cyclin D1 (Homo sapiens (Human), UniProt P11802); experiment: TR-FRET kinase inhibition assay, CDK4/Cyclin D1; conditions: 1 mM ATP, 0.15 μM Rb (Ser780)-biotin substrate, read-out: CDK4D1 IC50
Sequence (P11802 whole entry): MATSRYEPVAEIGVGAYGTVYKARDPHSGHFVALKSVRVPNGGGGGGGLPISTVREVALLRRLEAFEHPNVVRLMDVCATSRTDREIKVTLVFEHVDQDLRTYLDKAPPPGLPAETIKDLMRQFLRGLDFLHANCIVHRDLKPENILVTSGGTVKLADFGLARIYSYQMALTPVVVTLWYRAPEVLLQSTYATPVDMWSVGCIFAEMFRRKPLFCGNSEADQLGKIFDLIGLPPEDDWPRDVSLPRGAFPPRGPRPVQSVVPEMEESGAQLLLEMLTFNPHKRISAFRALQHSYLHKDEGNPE
Sequence (P24385 whole entry partner): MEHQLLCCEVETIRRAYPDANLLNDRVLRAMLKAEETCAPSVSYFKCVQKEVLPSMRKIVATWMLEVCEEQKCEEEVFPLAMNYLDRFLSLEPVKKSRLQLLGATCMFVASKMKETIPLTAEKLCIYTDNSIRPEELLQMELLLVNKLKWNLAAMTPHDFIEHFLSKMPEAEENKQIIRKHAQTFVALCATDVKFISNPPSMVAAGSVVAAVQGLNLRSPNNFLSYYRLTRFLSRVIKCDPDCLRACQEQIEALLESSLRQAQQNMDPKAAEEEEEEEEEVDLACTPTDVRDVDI
pIC50: −log10 of the molar value.
measured-metric: pIC50

compound="CC(C)n1c(CN2C[C@@H](O)[C@@H](F)C2)cc(=O)c2ccc(-c3nc(N[C@@H]4CCOC[C@H]4O)ncc3F)cc21 [Example 31]" endpoint_value=7.89
compound="Cc1c(C)n(C(C)C)c2cc(-c3nc(N[C@@H]4CCOC[C@H]4O)ncc3F)ccc2c1=O [Example 16]" endpoint_value=8.08
compound="CC(C)n1c(CN2CC[C@](C)(O)C2)cc(=O)c2ccc(-c3nc(N[C@@H]4CCOC[C@H]4O)ncc3F)cc21 [Example 61]" endpoint_value=7.52
compound="Cc1c(CN2CCC(F)(F)CC2)n(C(C)C)c2cc(-c3nc(N[C@@H]4CCOC[C@H]4O)ncc3F)ccc2c1=O [Example 121]" endpoint_value=8.33
compound="CC(C)n1c(CN2CCC[C@H](O)C2)cc(=O)c2ccc(-c3nc(N[C@@H]4CCOC[C@H]4O)ncc3F)cc21 [Example 56]" endpoint_value=8.15
compound="CC(C)n1c(CN2[C@@H](C)COC[C@@H]2C)cc(=O)c2ccc(-c3nc(N[C@@H]4CCOC[C@H]4O)ncc3F)cc21 [Example 93]" endpoint_value=8.06
compound="CC(C)n1c(CN2[C@H](C)COC[C@H]2C)cc(=O)c2ccc(-c3nc(N[C@@H]4CCOC[C@H]4O)ncc3F)cc21 [Example 106]" endpoint_value=8.32
compound="Cc1c(CO)n(C(C)C)c2cc(-c3nc(N[C@@H]4CCOC[C@H]4O)ncc3F)ccc2c1=O [Example 119]" endpoint_value=8.04
compound="Cc1c(CN2CC[C@](C)(O)C2)n(C(C)C)c2cc(-c3nc(N[C@@H]4CCOC[C@H]4O)ncc3F)ccc2c1=O [Example 125]" endpoint_value=7.82
compound="CC(C)n1c(CN[C@@H]2CCOC2)cc(=O)c2ccc(-c3nc(N[C@@H]4CCOC[C@H]4O)ncc3F)cc21 [Example 65]" endpoint_value=7.51
compound="CC(C)n1c(CN2CC(O)C2)cc(=O)c2ccc(-c3nc(N[C@@H]4CCOC[C@H]4O)ncc3F)cc21 [Example 30]" endpoint_value=7.52
compound="CC(C)n1c(CN2CCC[C@]3(CCN(C)C3=O)C2)cc(=O)c2ccc(-c3nc(N[C@@H]4CCOC[C@H]4O)ncc3F)cc21 [Example 52]" endpoint_value=8.19
compound="Cc1cc(=O)c2ccc(-c3nc(N[C@@H]4CCOC[C@H]4O)ncc3F)cc2n1C1CCCC1 [Example 10]" endpoint_value=7.40
compound="CC(C)n1c(CNc2cnn(C)c2)cc(=O)c2ccc(-c3nc(N[C@@H]4CCOC[C@H]4O)ncc3F)cc21 [Example 78]" endpoint_value=7.66
compound="CC(C)n1c(CN2CC3CC2C3)cc(=O)c2ccc(-c3nc(N[C@@H]4CCOC[C@H]4O)ncc3F)cc21 [Example 43]" endpoint_value=7.60
compound="CC(C)n1c(C2CCCN2)cc(=O)c2ccc(-c3nc(N[C@@H]4CCOC[C@H]4O)ncc3F)cc21 (stereo partly shown) [Example 388]" endpoint_value=8.00
compound="Cc1c(CN2CCC(C)(O)CC2)n(C(C)C)c2cc(-c3nc(N[C@@H]4CCOC[C@H]4O)ncc3F)ccc2c1=O [Example 103]" endpoint_value=7.92
compound="Cc1c(CN2CCCC3(CCNC3=O)C2)n(C(C)C)c2cc(-c3nc(N[C@@H]4CCOC[C@H]4O)ncc3F)ccc2c1=O (stereo partly shown) [Example 124]" endpoint_value=8.30
compound="CC(C)n1c(CNC2CC2)cc(=O)c2ccc(-c3nc(N[C@@H]4CCOC[C@H]4O)ncc3F)cc21 [Example 48]" endpoint_value=8.04
compound="CC(C)n1c(CN2C[C@H](O)[C@@H](F)C2)cc(=O)c2ccc(-c3nc(N[C@@H]4CCOC[C@H]4O)ncc3F)cc21 [Example 32]" endpoint_value=8.00
compound="CC(C)n1c(CN2C[C@@H](F)[C@@H](O)C2)cc(=O)c2ccc(-c3nc(N[C@@H]4CCOC[C@H]4O)ncc3F)cc21 [Example 45]" endpoint_value=7.68
compound="CC(C)n1c(CN2CCC(F)(F)C2)cc(=O)c2ccc(-c3nc(N[C@@H]4CCOC[C@H]4O)ncc3F)cc21 [Example 80]" endpoint_value=7.66
compound="CC(C)n1c(CN2CCC[C@@H](F)C2)cc(=O)c2ccc(-c3nc(N[C@@H]4CCOC[C@H]4O)ncc3F)cc21 [Example 98]" endpoint_value=8.07
compound="CC(C)n1c(CN2C3CCCC2CC(O)C3)cc(=O)c2ccc(-c3nc(N[C@@H]4CCOC[C@H]4O)ncc3F)cc21 (stereo partly shown) [Example 90]" endpoint_value=8.24
compound="CC(C)n1c(CNC2CCC2)cc(=O)c2ccc(-c3nc(N[C@@H]4CCOC[C@H]4O)ncc3F)cc21 [Example 76]" endpoint_value=7.55
compound="CC(C)n1c(CN2CCC(C)(O)CC2)cc(=O)c2ccc(-c3nc(N[C@@H]4CCOC[C@H]4O)ncc3F)cc21 [Example 38]" endpoint_value=7.62
compound="CC(C)n1c(CNC2CC(F)(F)C2)cc(=O)c2ccc(-c3nc(N[C@@H]4CCOC[C@H]4O)ncc3F)cc21 [Example 77]" endpoint_value=7.59
compound="Cc1c(C2CCN2)n(C(C)C)c2cc(-c3nc(N[C@@H]4CCOC[C@H]4O)ncc3F)ccc2c1=O (stereo partly shown) [Example 386]" endpoint_value=7.92

###

biological target: CDK4/Cyclin D1 (Homo sapiens (Human), UniProt P11802); experiment: TR-FRET kinase inhibition assay, CDK4/Cyclin D1; details: 1 mM ATP, 0.15 μM Rb (Ser780)-biotin substrate, read-out: CDK4D1 IC50
measured-metric: log10 of IC50 (log10 of the value in nM)

molecule="Cc1c(CN2[C@H](C)COC[C@H]2C)n(C(C)C)c2cc(-c3nc(N[C@@H]4CCOC[C@H]4O)ncc3F)ccc2c1=O [Example 71]" measured_metric="log10 of IC50" endpoint_value=0.43
molecule="Cc1c(C2CC2)c(=O)c2ccc(-c3nc(N[C@@H]4CCOC[C@H]4O)ncc3F)cc2n1C(C)C [Example 40]" measured_metric="log10 of IC50" endpoint_value=0.94
molecule="CC(C)n1c(CN2CCC[C@@H](C#N)C2)cc(=O)c2ccc(-c3nc(N[C@@H]4CCOC[C@H]4O)ncc3F)cc21 [Example 88]" measured_metric="log10 of IC50" endpoint_value=0.61
molecule="CC(C)n1c(CNc2ccccc2)cc(=O)c2ccc(-c3nc(N[C@@H]4CCOC[C@H]4O)ncc3F)cc21 [Example 94]" measured_metric="log10 of IC50" endpoint_value=1.04
molecule="Cc1cn(C(C)C)c2cc(-c3nc(N[C@@H]4CCOC[C@H]4O)ncc3F)ccc2c1=O [Example 2]" measured_metric="log10 of IC50" endpoint_value=1.83
molecule="CC(C)n1c(CN2CCOC[C@@H]2C)cc(=O)c2ccc(-c3nc(N[C@@H]4CCOC[C@H]4O)ncc3F)cc21 [Example 53]" measured_metric="log10 of IC50" endpoint_value=1.04
molecule="CC(C)n1c(CN2CCC[C@@H](O)C2)cc(=O)c2ccc(-c3nc(N[C@@H]4CCOC[C@H]4O)ncc3F)cc21 [Example 57]" measured_metric="log10 of IC50" endpoint_value=1.20

###

Each entry below carries its recorded pIC50.
target: CDK4/Cyclin D1 (Homo sapiens (Human), UniProt P11802); experiment: TR-FRET kinase inhibition assay, CDK4/Cyclin D1; conditions: 1 mM ATP, 0.15 μM Rb (Ser780)-biotin substrate, read-out: CDK4D1 IC50
pIC50: −log10 of the molar value.
measured-metric: pIC50

compound=Cc1c(CN2CC3CCC(C2)O3)n(C(C)C)c2cc(-c3nc(N[C@@H]4CCOC[C@H]4O)ncc3F)ccc2c1=O endpoint_value=7.82
compound=CC(=O)NCc1cc(=O)c2ccc(-c3nc(N[C@@H]4CCOC[C@H]4O)ncc3F)cc2n1C(C)C endpoint_value=7.80
compound=CC(C)n1c(CN2CCOCC23CC3)cc(=O)c2ccc(-c3nc(N[C@@H]4CCOC[C@H]4O)ncc3F)cc21 endpoint_value=8.12
compound=CC(C)n1c(CN2CCC(F)CC2)cc(=O)c2ccc(-c3nc(N[C@@H]4CCOC[C@H]4O)ncc3F)cc21 endpoint_value=7.77
compound=CC(C)n1c(CN2CCC(C#N)CC2)cc(=O)c2ccc(-c3nc(N[C@@H]4CCOC[C@H]4O)ncc3F)cc21 endpoint_value=7.66
compound=CC(C)n1c(C(=O)NCC(C)(C)O)cc(=O)c2ccc(-c3nc(N[C@@H]4CCOC[C@H]4O)ncc3Cl)cc21 endpoint_value=7.31
compound="CC(C)n1c(CN2C3CCC2COC3)cc(=O)c2ccc(-c3nc(N[C@@H]4CCOC[C@H]4O)ncc3F)cc21 [Example 81]" endpoint_value=7.64
